# TEST TARGET: Avi-KRAS WT (1-169) GppNHp/RAF1 RBD-3xFLAG (52-151) (Homo sapiens, UniProt P01116)
# Construct: Avi-KRAS WT (1-169)
# Sequence (P01116 1-169 isoform P01116-2): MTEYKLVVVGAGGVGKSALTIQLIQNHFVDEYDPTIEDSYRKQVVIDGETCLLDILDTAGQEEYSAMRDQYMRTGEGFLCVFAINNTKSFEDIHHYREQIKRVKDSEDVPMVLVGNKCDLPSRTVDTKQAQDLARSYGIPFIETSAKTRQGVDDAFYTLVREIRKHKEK
# PROTOCOL SUMMARY: Raf1-KRAS WT-GppNHP disruption HTRF assay (Biological Example 1)
# Type: binding
# CONDITION INFO: KRAS WT-GppNHp/RAF1 RBD HTRF
pIC50: −log10 of the molar value.
Quick list: pIC50 per entry.
QUANTITY KIND: pIC50

# COMPOUND, REPORTED MEASUREMENT
measured = [
    ("CCN(c1nc(OC[C@@]23CCCN2C[C@H](F)C3)nc2c(F)c(-c3ccc(F)c4sc(N)c(C#N)c34)c(C(F)(F)F)cc12)[C@H]1C[C@@H](C)N(C(C)=O)C1 [Compound 446]", "6.00 to 7.00"),
    ("CC(=O)N1CCC[C@H](N(C)c2nc(OC[C@@]34CCCN3C[C@H](F)C4)nc3c(F)c(-c4ccc(F)c5sc(N)c(C#N)c45)c(C(F)(F)F)cc23)C1 [Compound 289]", "6.00 to 7.00"),
    ("CCC(=O)N1CC[C@@H](N(CC)c2nc(OC[C@@]34CCCN3C[C@H](F)C4)nc3c(F)c(-c4ccc(F)c5sc(N)c(C#N)c45)c(Cl)cc23)[C@H]1C [Compound 324]", "6.00 to 7.00"),
    ("N#Cc1c(N)sc2c(F)ccc(-c3c(C(F)(F)F)cc4c(N5C[C@H]6C[C@@H]5CO6)nc(OC[C@@]56CCCN5C[C@H](F)C6)nc4c3F)c12 (single isomer, unassigned) [Compound 287]", "6.00 to 7.00"),
    ("Cc1nc(OC[C@@]23CCCN2C[C@H](F)C3)nc2c(F)c(-c3ccc(F)c4sc(N)c(C#N)c34)c(C(F)(F)F)cc12 [Compound 318]", "5.00 to 6.00"),
    ("CCN(c1nc(OC[C@@]23CCCN2C[C@H](F)C3)nc2c(F)c(-c3ccc(F)c4sc(N)c(C#N)c34)c(C(F)(F)F)cc12)[C@H]1CCN(C(=O)C2(C#N)CC2)C1 [Compound 560]", "> 7.00"),
    ("CC(C)C(=O)N1CC[C@](C)(N(C)c2nc(OC[C@@]34CCCN3C[C@H](F)C4)nc3c(F)c(-c4ccc(F)c5sc(N)c(C#N)c45)c(C(F)(F)F)cc23)C1 [Compound 499]", "5.00 to 6.00"),
    ("C[C@H]1CN(c2nc(OC[C@@]34CCCN3C[C@H](F)C4)nc3c(F)c(-c4ccc(F)c5sc(N)c(C#N)c45)c(C(F)(F)F)cc23)Cc2cc(C(=O)N(C)C)nn21 [Compound 402]", "5.00 to 6.00"),
    ("CC(=O)N1C[C@H](N(C)c2nc(OC[C@@]34CCCN3C[C@H](F)C4)nc3c(F)c(-c4ccc(F)c5sc(N)c(C#N)c45)c(C(F)(F)F)cc23)C[C@@H]1C [Compound 298]", "6.00 to 7.00"),
    ("COC(=O)N1CC[C@@H](N(C)c2nc(OC[C@@]34CCCN3C[C@H](F)C4)nc3c(F)c(-c4ccc(F)c5sc(N)c(C#N)c45)c(C(F)(F)F)cc23)[C@H]1C [Compound 410]", "6.00 to 7.00"),
    ("CN(C)C(=O)c1nc2n(n1)CCN(c1nc(OC[C@@]34CCCN3C[C@H](F)C4)nc3c(F)c(-c4ccc(F)c5sc(N)c(C#N)c45)c(C(F)(F)F)cc13)C2 [Compound 356]", "6.00 to 7.00"),
]
